Reported glycan array binding signal (z-score) values for the following binders.
# SYSTEM TESTED: Gal(b1-4)GlcNAc(b1-3)Gal(b1-4)GlcNAc(b1-3)Gal(b1-4)GlcNAc(b1-3)Gal(b1-4)GlcNAc(b1-2)[Gal(b1-4)GlcNAc(b1-3)Gal(b1-4)GlcNAc(b1-3)Gal(b1-4)GlcNAc(b1-3)Gal(b1-4)GlcNAc(b1-6)]Man(a1-6)[Gal(b1-4)GlcNAc(b1-3)Gal(b1-4)GlcNAc(b1-3)Gal(b1-4)GlcNAc(b1-3)Gal(b1-4)GlcNAc(b1-2)Man(a1-3)]Man(b1-4)GlcNAc(b1-4)[Fuc(a1-6)]GlcNAc
# ASSAY INFO: glycan array binding signal (z-score within array); higher = stronger binding
# EXPERIMENTAL SETUP: glycan notation: IUPAC condensed, linker removed
The sample as a whole holds a higher share of the strongest signals than the screen did.

>  <BINDER>
DC-ASGPR L+GEE (Homo sapiens) (protein) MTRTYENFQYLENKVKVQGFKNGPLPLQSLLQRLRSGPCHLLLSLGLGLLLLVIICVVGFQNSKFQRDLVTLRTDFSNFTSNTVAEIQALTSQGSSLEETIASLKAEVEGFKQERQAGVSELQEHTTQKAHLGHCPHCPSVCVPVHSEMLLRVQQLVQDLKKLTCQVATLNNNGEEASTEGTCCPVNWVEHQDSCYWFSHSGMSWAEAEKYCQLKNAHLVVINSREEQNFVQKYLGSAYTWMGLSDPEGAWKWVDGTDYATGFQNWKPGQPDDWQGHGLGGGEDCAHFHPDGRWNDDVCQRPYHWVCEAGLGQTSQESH

>  <glycan array binding signal (z-score)>
2.52

$$$$
>  <BINDER>
WGA (Triticum vulgare) (protein) QRCGEQGSNMECPNNLCCSQYGYCGMGGDYCGKGCQNGACWTSKRCGSQAGGATCPNNHCCSQYGHCGFGAEYCGAGCQGGPCRADIKCGSQSGGKLCPNNLCCSQWGFCGLGSEFCGGGCQSGACSTDKPCGKDAGGRVCTNNYCCSKWGSCGIGPGYCGAGCQSGGCDAVFAGAITANSTLLAE

>  <glycan array binding signal (z-score)>
0.022

$$$$
>  <BINDER>
Gal 1 (Mus musculus), P16045 (protein) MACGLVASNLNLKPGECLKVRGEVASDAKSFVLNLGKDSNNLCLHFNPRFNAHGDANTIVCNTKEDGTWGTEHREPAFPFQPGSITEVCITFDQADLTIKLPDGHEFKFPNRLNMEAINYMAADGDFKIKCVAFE

>  <glycan array binding signal (z-score)>
3.42

$$$$
